assay: Drug excretion in bile-duct cannulated Sprague-Dawley rat bile assessed as unchanged drug at 5 mg/kg, iv measured over 24 hrs
Format: ADME, organism-based
Parameters: dose 5 mg/kg, route intravenous
measurement.setup: read-out: AE
assay.metric: dose excreted at 24 h (%)
Answer format: numeric, % implied, no suffix.

Ask: Param item = Cc1cc2ncc(C(=O)NCC(C)(C)NCC(=O)N3CCC[C@H]3C#N)cn2n1.Cl [ANAGLIPTIN HYDROCHLORIDE] ; retrieve measured dose excreted at 24 h.
Reply: 14

---

assay: Terminal half life in Beagle dog at 0.5 mg/kg, po
Format: ADME, organism-based, Canis lupus familiaris
Set-up: dose 0.5 mg/kg, route oral
measurement.setup: in vivo, read-out: beta t1/2 (converted)
assay.metric: half-life (min)
Answer format: numeric, min implied, no suffix.

Ask: Param item = Cc1cc2ncc(C(=O)NCC(C)(C)NCC(=O)N3CCC[C@H]3C#N)c(C)n2n1.Cl ; retrieve measured half-life.
Reply: 78

Ask: Check Cc1cc2ncc(C(=O)NCC(C)(C)NCC(=O)N3CCC[C@H]3C#N)cn2n1.Cl [ANAGLIPTIN HYDROCHLORIDE] too.
Reply: 60
